Test system: RSV Long strain
assay: Viral cytopathic effect (CPE) assay, RSV Long strain
Format: cell-based, Respiratory Syncytial Virus
study-conditions: human respiratory syncytial virus, 144 h, cell viability after 6 days (Cell Counting kit-8)
quantity-name: pEC50
Worth noting: pEC50 values are minus log10 of concentrations stated in mol/L.

O=C1N(Cc2cc3cc(Cl)ncc3n2CCCS(=O)(=O)C2CC2)c2cnccc2C12CC2    7.31

-- ask Give the reported value of pEC50 for this record: COC(=O)CCCn1c(CN2C(=O)C3(CC3)c3ccncc32)cc2cc(Cl)ccc21
-- reply 7.73

-- ask Output measured pEC50 for this item: CN(C)S(=O)(=O)CCCn1c(CN2C(=O)C3(CC3)c3ccncc32)cc2cc(Cl)cnc21
-- reply 7.19

-- ask Quick one: give measured pEC50 for CS(=O)(=O)c1ccc(Cn2c(CN3C(=O)C4(CC4)c4ccncc43)cc3cc(Cl)ccc32)cc1
-- reply 6.56

-- ask Supply recorded pEC50 for CS(=O)(=O)CCn1c(CN2C(=O)C3(CC3)c3ccncc32)cc2cc(F)c(F)cc21 here.
-- reply 6.03

-- ask // Input: O=C1N(Cc2cc3cc(Cl)ccc3n2CCCS(=O)(=O)N2CCNCC2)c2cnccc2C12CC2 . Output its pEC50 only.
-- reply 7.82

-- ask Return pEC50 (reported value) for this compound: CS(=O)(=O)NCCn1c(CN2C(=O)C3(CC3)c3ccncc32)cc2cc(Cl)ccc21
-- reply 7.94

-- ask Could you please provide reported pEC50 for O=C(O)CCn1c(CN2C(=O)C3(CC3)c3ccncc32)cc2cc(Cl)ccc21 ? Thanks!
-- reply 6.41

-- ask Indicate the recorded pEC50 value for this compound: O=C1N(Cc2nc3cc(Cl)cc(F)c3n2CC2COC2)c2cnccc2C12CC2
-- reply 7.52

-- ask Please indicate pEC50 recorded for CCOC(=O)CCn1c(CN2C(=O)C3(CC3)c3ccncc32)cc2cc(Cl)ccc21
-- reply 7.72

-- ask Report pEC50, nothing else, for this compound: CS(=O)(=O)CCn1c(CN2C(=O)C3(CC3)c3ccncc32)cc2cc(C#N)ccc21
-- reply 6.03

-- ask Supply measured pEC50 of CS(=O)(=O)N1CCN(CCn2c(CN3C(=O)C4(CC4)c4ccncc43)cc3cc(Cl)ccc32)CC1 in your reply.
-- reply 8.22
